Target: recombinant renin in human plasma (Homo sapiens, UniProt P00797)
Sequence (P00797 67-406): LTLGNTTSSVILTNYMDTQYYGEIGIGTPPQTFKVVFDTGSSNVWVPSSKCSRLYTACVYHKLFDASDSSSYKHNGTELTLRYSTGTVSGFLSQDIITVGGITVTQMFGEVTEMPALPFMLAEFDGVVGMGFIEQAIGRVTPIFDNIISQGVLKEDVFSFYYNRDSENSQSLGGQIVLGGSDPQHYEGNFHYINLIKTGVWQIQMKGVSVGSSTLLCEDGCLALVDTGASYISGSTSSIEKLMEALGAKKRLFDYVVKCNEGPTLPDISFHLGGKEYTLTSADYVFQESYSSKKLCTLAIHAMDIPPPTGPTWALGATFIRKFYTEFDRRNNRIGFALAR
Assay: Inhibition of renin in human plasma (QFRET, plasma)
Settings: human EDTA plasma with 1 nM recombinant renin added; 37° C., 1 hour
Metric Name: IC50 (nM)

> print(dat)
                                   compound  metric.name  measurement.unit  readout.number
1  COCc1ccc2cccc(-c3ccc([C@H]4CNCC[C@@H]4c4cc(F)cc(F)c4)c(C)c3)c2c1 (racemic)         IC50                nM           11300

P: CC(=O)NCCc1ccccc1-c1ccc([C@H]2CNCC[C@]2(O)c2ccc(OC(F)(F)F)c(F)c2)c(C)c1
Q: Cc1ccc(Cl)c(-c2noc([C@H]3CNCC[C@]3(O)c3ccc(F)c(F)c3)c2Br)c1F
For the two items P and Q , which reports the higher IC50 value? Answer by quoting the chosen item's label. Q
